Readings of melting point for the listed molecules

q: Give the measured melting point for COc1ccc(C23CC(C4=C(CC(c5ccccc5)OC4=O)O2)c2cc([N+](=O)[O-])ccc2O3)cc1OC (racemic) [(±)-65a]
a: 198 to 200 °C

q: Give the measured melting point for COc1ccc(C23CC(c4cc(Cl)ccc4O2)c2c(O)cc(O)cc2O3)cc1OC (racemic) [(±)-44]
a: 257 to 259 °C

q: Give the measured melting point for COc1ccc(C2CC3=C(C(=O)O2)C2CC(c4ccc(OC)c(OC)c4)(O3)Oc3ccc([N+](=O)[O-])cc32)cc1 (racemic) [(±)-67a]
a: 162 to 164 °C
